Biological target: human α1b receptor (Homo sapiens)
Construct: The entire coding region of α1b (1563 bp); expressed in transfected cells; host or cells: LM(tk-) mouse fibroblast line L-α1B, ATCC CR 11139
Sequence (P35368 whole entry): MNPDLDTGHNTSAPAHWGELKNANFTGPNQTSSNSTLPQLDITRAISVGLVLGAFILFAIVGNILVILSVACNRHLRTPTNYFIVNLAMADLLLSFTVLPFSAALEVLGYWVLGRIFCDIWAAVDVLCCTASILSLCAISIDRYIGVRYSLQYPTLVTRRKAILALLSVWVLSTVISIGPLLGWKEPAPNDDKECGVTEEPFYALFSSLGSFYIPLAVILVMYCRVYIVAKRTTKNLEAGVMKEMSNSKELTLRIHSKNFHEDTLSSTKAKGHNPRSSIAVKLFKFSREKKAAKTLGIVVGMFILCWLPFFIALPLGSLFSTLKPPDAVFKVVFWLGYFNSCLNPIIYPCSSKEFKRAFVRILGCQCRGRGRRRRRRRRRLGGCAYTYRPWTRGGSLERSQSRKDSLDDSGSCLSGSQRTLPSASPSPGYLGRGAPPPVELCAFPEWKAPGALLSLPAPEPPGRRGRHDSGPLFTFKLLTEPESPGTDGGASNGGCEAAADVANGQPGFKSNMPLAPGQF
Test: Radioligand binding ([^3 H]prazosin) at cloned human α1b receptor
Conditions: LM(tk-) cell membranes, read-out: hα1b Ki
Method: Binding affinities were measured for selected compounds of the invention at six cloned human α1 and α2 receptor subtypes, as well as at the L-type calcium channel. The protocols for these experiments are given below. The activity of compounds at the different human receptors was determined in vitro using cultured cell lines that selectively express the receptor of interest. […]
Ki: recorded values
Express it in nM; write the number only.

# annotated cases, reported Ki shown
COC(=O)c1[nH]c(=O)n(CCCCCN2CCC(C(=O)OC)(c3ccccc3)CC2)c1-c1ccc(F)c(F)c1 | 309
COC(=O)c1[nH]c(=O)n(CCCCCN2CCC(C#N)(c3ccccc3)CC2)c1-c1ccc(F)c(F)c1 | 347
COC(=O)c1[nH]c(=O)n(CCCCCN2CCC(O)(c3ccccc3)CC2)c1-c1ccc(F)c(F)c1 | 1580
COC(=O)c1[nH]c(=O)n(CCCCCN2CCN(c3ccccc3C(N)=O)CC2)c1-c1cc(F)c(F)c(F)c1 | 159

Now for another entry.
[ask] Fill in the blank: the reported Ki of `COC(=O)c1[nH]c(=O)n(CCCCCN2CCC(C(=O)OC)(c3ccccc3)CC2)c1Cc1ccc(F)c(F)c1` is ____.
[reply] 558
